System: HBEGF locus
Assay type: cell-based, human
Settings: high-throughput screen of dXR repression of the HBEGF gene; change in abundance of each domain in the library before and after diphtheria toxin selection
Each record here notes measured Log2 (fold change).
// no unit string in output, number only

Example results:
molecule	Log2 (fold change)
DOMAIN_2499 (protein, listed as Pongo sp.) MNSEVIVDPIQGQVNFEDVFVYFSQEEWVLLDEAQRLLYRDVMLENFALMASLGHTSFMSHIGASLVMGSEPWVPDWVDMI	3.114
DOMAIN_5791 (protein, listed as Homo sapiens) EPGAVSFADVAVYFCREEWGCLRPAQRALYRDVMRETYGHLSALGIGGNKPALISWVEEEAELWGPAAQDPEVAKCQTQTD	2.6823

Which Log2 (fold change) reading was recorded for the molecule DOMAIN_6738 (protein, Microcaecilia unicolor) FQTLLAFEDVAVFFSEEEWELLDELQKEVYKNTMRENYETLLSLGLTNMKPEIIAKIDAGEAPSVQNASYLEKRGKKSAAG ?
2.9275

# repeat for DOMAIN_18563 (protein, listed as Aotus trivirgatus) IQGQVNFEDVFVYFSQEEWVLLDEAQRLLYRDVMLENFALMASLGHTSFTSHTVASLVMGPDWVDVTPAVATGTLSGSGPG
3.0406
